- Tested on: SLA-2*05:02
- PROCEDURE DETAILS: Peptide-MHC class I complex stability, scintillation proximity assay (SPA)
- Set-up: species or system pig
- TEST SETTINGS: biotinylated recombinant SLA heavy chain, 125I-β2m, excess unlabeled β2m, read every 40 min, number only if t1/2 ≥ 0.5 h, '-' = not stably binding
Consider the following sequences; for each one, report its Binder (t1/2 ≥ 0.5 h): half-life of peptide-SLA-2*05:02 complex.
Report as a plain number; the unit h is understood.

Task item: I have this sequence here, EVKHFCPNV [RhoC23, porcine RhoC-derived 9-11mer peptide] , and I need its recorded Binder (t1/2 ≥ 0.5 h): half-life of peptide-SLA-2*05:02 complex.
Reply: 2.0

Task item: Do the same for HLQIVTKYI [IDO38, porcine IDO-derived 9-11mer peptide] please
Reply: 0.5

Task item: Next up: LSYPDTDVILM [RhoC37, porcine RhoC-derived 9-11mer peptide]
Reply: 1.4

Task item: And the next one, ELAKMKQEPVR [RhoC16, porcine RhoC-derived 9-11mer peptide] ?
Reply: 0.8
